# System: THP-1 cells
# protocolText: Evaluation of cytotoxicity on THP-1 cells (MTS)
# Format: cell-based, human
# statedConditions: 100 µM, 72 h, PMA-differentiated THP-1
# Procedure: Finally, eighteen compounds were first screened for efficacy against L. infantum MHOM/TN/80/IPT1 promastigotes at a single dose of 20 µM for 72 hours. […] The cytotoxicity of the compounds was assessed on THP-1 cells seeded at a density of 5 × 10^5 cells per mL, 100μL/well in a 96-well plate and treated for 72 h with 20 ng/mL phorbol myristic acid (PMA) to induce differentiation into macrophages like cells. […]
outcomeMeasure: Cytotoxicity on THP‐1 (100, 20, 4 µM) (%)
I only need the number, in %, no unit after it.

Please review the entries below; each comes with its answer.
- compound: "NCC(c1c[nH]c2cc(-c3ccc4ccccc4c3)ccc12)c1c[nH]c2cc(-c3ccc4ccccc4c3)ccc12 [3ao]"
  valueMeasured: 76
- compound: "COc1cccc(-c2ccc3c(C(CN)c4c[nH]c5cc(-c6cccc(OC)c6)ccc45)c[nH]c3c2)c1 [3aj]"
  valueMeasured: 85
- compound: "NCC(c1c[nH]c2cc(-c3ccc(F)cc3)ccc12)c1c[nH]c2cc(-c3ccc(F)cc3)ccc12 [3ab]"
  valueMeasured: 85
- compound: "C=Cc1ccc(-c2ccc3c(C(CN)c4c[nH]c5cc(-c6ccc(C=C)cc6)ccc45)c[nH]c3c2)cc1 [3af]"
  valueMeasured: 78

Short answer for NCC(c1c[nH]c2cc(-c3cccc4ccccc34)ccc12)c1c[nH]c2cc(-c3cccc4ccccc34)ccc12 [3an] : Cytotoxicity on THP‐1 (100, 20, 4 µM) (%) was 79

Short answer for CC(C)(C)OC(=O)n1cccc1-c1ccc2c(C(CN)c3c[nH]c4cc(-c5cccn5C(=O)OC(C)(C)C)ccc34)c[nH]c2c1 [3ap] : Cytotoxicity on THP‐1 (100, 20, 4 µM) (%) was 85

Short answer for NCC(c1c[nH]c2cc(-c3cccc4[nH]ccc34)ccc12)c1c[nH]c2cc(-c3cccc4[nH]ccc34)ccc12 [3aq] : Cytotoxicity on THP‐1 (100, 20, 4 µM) (%) was 89

====

// values below are reported CC50 at 72 h
# protocolText: Evaluation of cytotoxicity on THP-1 cells (MTS)
# Type: cell-based, human
# statedConditions: human; 72 h, scalar dilutions 1:2 from 100 to 3.12 µM; mean (95% CI); read-out: THP‐1 CC50 (µM) (95% CI)
# Experimental: Finally, eighteen compounds were first screened for efficacy against L. infantum MHOM/TN/80/IPT1 promastigotes at a single dose of 20 µM for 72 hours. […] The cytotoxicity of the compounds was assessed on THP-1 cells seeded at a density of 5 × 10^5 cells per mL, 100μL/well in a 96-well plate and treated for 72 h with 20 ng/mL phorbol myristic acid (PMA) to induce differentiation into macrophages like cells. […]
Reply with the number and its unit after it.

- molecule: "NCC(c1c[nH]c2cc(-c3cccc4[nH]ccc34)ccc12)c1c[nH]c2cc(-c3cccc4[nH]ccc34)ccc12 [3aq]"
  CC50 at 72 h: "14.6 µM"
- molecule: "C=Cc1ccc(-c2ccc3c(C(CN)c4c[nH]c5cc(-c6ccc(C=C)cc6)ccc45)c[nH]c3c2)cc1 [3af]"
  CC50 at 72 h: "24 µM"
- molecule: "NCC(c1c[nH]c2c(-c3ccccc3)cccc12)c1c[nH]c2c(-c3ccccc3)cccc12 [3ca]"
  CC50 at 72 h: "18.1 µM"

Could you now look at the following molecule, please?
Short answer for CCCCCCCCCCCCCCCCOP(=O)([O-])OCC[N+](C)(C)C [Milt, miltefosine, reference compound] : CC50 at 72 h was 36.6 µM

====

# System: THP-1 cells
# protocolText: Evaluation of cytotoxicity on THP-1 cells (MTS)
# Format: cell-based, human
# statedConditions: 4 µM, 72 h, PMA-differentiated THP-1
outcomeMeasure: Cytotoxicity on THP‐1 (100, 20, 4 µM) (%)

- compound: "NCC(c1c[nH]c2cc(-c3ccccc3)ccc12)c1c[nH]c2cc(-c3ccccc3)ccc12"
  valueMeasured: "−18%"
- compound: "NCC(c1c[nH]c2cc(-c3cccc4ccccc34)ccc12)c1c[nH]c2cc(-c3cccc4ccccc34)ccc12"
  valueMeasured: "−15%"
- compound: "NCC(c1c[nH]c2cc(-c3ccc4ccccc4c3)ccc12)c1c[nH]c2cc(-c3ccc4ccccc4c3)ccc12"
  valueMeasured: "−13%"

Short answer for `NCC(c1c[nH]c2ccc(-c3ccccc3)cc12)c1c[nH]c2ccc(-c3ccccc3)cc12` : Cytotoxicity on THP‐1 (100, 20, 4 µM) (%) was −22%

Short answer for CCCCCCCCCCCCCCCCOP(=O)([O-])OCC[N+](C)(C)C [Milt, miltefosine, reference compound] : Cytotoxicity on THP‐1 (100, 20, 4 µM) (%) was −35%

Short answer for `COc1cccc(OC)c1-c1ccc2c(C(CN)c3c[nH]c4cc(-c5c(OC)cccc5OC)ccc34)c[nH]c2c1` : Cytotoxicity on THP‐1 (100, 20, 4 µM) (%) was −5%

Short answer for `COc1ccc(-c2ccc3c(C(CN)c4c[nH]c5cc(-c6ccc(OC)cc6)ccc45)c[nH]c3c2)cc1` : Cytotoxicity on THP‐1 (100, 20, 4 µM) (%) was −12%

Short answer for `NCC(c1c[nH]c2cc(-c3cccc(-c4ccccc4)c3)ccc12)c1c[nH]c2cc(-c3cccc(-c4ccccc4)c3)ccc12` : Cytotoxicity on THP‐1 (100, 20, 4 µM) (%) was −20%

====

// values below are reported inhibition at 20 µM
# Tested on: L. infantum MHOM/TN/80/IPT1 promastigotes
# protocolText: L. infantum promastigotes viability assay (MTS)
# Assay type: cell-based, Leishmania infantum
# statedConditions: Leishmania infantum, 72 h, single dose 20 µM
I only need the number, in %, no unit after it.

Please review the entries below; each comes with its answer.
- compound: "NCC(c1c[nH]c2cc(-c3ccc4ccccc4c3)ccc12)c1c[nH]c2cc(-c3ccc4ccccc4c3)ccc12"
  unitsSymbol: "%"
  valueMeasured: 95.1
- compound: "COc1cccc(-c2ccc3c(C(CN)c4c[nH]c5cc(-c6cccc(OC)c6)ccc45)c[nH]c3c2)c1"
  unitsSymbol: "%"
  valueMeasured: 96.5
- compound: "CCCCCCCCCCCCCCCCOP(=O)([O-])OCC[N+](C)(C)C [Milt, miltefosine, reference compound]"
  unitsSymbol: "%"
  valueMeasured: 98.5
- compound: "COc1ccc(-c2ccc3c(C(CN)c4c[nH]c5cc(-c6ccc(OC)cc6)ccc45)c[nH]c3c2)cc1"
  unitsSymbol: "%"
  valueMeasured: 95.1
- compound: "NCC(c1c[nH]c2ccc(-c3ccccc3)cc12)c1c[nH]c2ccc(-c3ccccc3)cc12"
  unitsSymbol: "%"
  valueMeasured: 96.8

Short answer for `CC(C)(C)OC(=O)n1cccc1-c1ccc2c(C(CN)c3c[nH]c4cc(-c5cccn5C(=O)OC(C)(C)C)ccc34)c[nH]c2c1` : inhibition at 20 µM was 92.6

Short answer for `NCC(c1c[nH]c2cc(-c3cccc4ccccc34)ccc12)c1c[nH]c2cc(-c3cccc4ccccc34)ccc12` : inhibition at 20 µM was 97.8

====

// values below are reported Cytotoxicity on THP‐1 (100, 20, 4 µM) (%)
# Test system: THP-1 cells
# protocolText: Evaluation of cytotoxicity on THP-1 cells (MTS)
# Type: cell-based, human
# statedConditions: 20 µM, 72 h, PMA-differentiated THP-1
I only need the number, in %, no unit after it.

Please review the entries below; each comes with its answer.
- sampleSmiles: "COc1cccc(-c2ccc3c(C(CN)c4c[nH]c5cc(-c6cccc(OC)c6)ccc45)c[nH]c3c2)c1"
  valueMeasured: 97
- sampleSmiles: "COc1ccccc1-c1ccc2c(C(CN)c3c[nH]c4cc(-c5ccccc5OC)ccc34)c[nH]c2c1"
  valueMeasured: 97
- sampleSmiles: "NCC(c1c[nH]c2cc(-c3cccc4ccccc34)ccc12)c1c[nH]c2cc(-c3cccc4ccccc34)ccc12"
  valueMeasured: 95

Lab note: compound `CC(C)(C)OC(=O)n1cccc1-c1ccc2c(C(CN)c3c[nH]c4cc(-c5cccn5C(=O)OC(C)(C)C)ccc34)c[nH]c2c1` tested on THP-1 cells; recorded Cytotoxicity on THP‐1 (100, 20, 4 µM) (%) was 97

Lab note: compound `NCC(c1c[nH]c2cc(-c3cccc(Cl)c3)ccc12)c1c[nH]c2cc(-c3cccc(Cl)c3)ccc12` tested on THP-1 cells; recorded Cytotoxicity on THP‐1 (100, 20, 4 µM) (%) was 97

Lab note: compound `C=Cc1ccc(-c2ccc3c(C(CN)c4c[nH]c5cc(-c6ccc(C=C)cc6)ccc45)c[nH]c3c2)cc1` tested on THP-1 cells; recorded Cytotoxicity on THP‐1 (100, 20, 4 µM) (%) was 97

Lab note: compound `NCC(c1c[nH]c2cc(-c3ccc4ccccc4c3)ccc12)c1c[nH]c2cc(-c3ccc4ccccc4c3)ccc12` tested on THP-1 cells; recorded Cytotoxicity on THP‐1 (100, 20, 4 µM) (%) was 94

Lab note: compound `NCC(c1c[nH]c2cc(-c3ccccc3)ccc12)c1c[nH]c2cc(-c3ccccc3)ccc12` tested on THP-1 cells; recorded Cytotoxicity on THP‐1 (100, 20, 4 µM) (%) was 97
